I'd be grateful if you could share measured IC50 at 48 h for these entries.
assay: WST-8 cytotoxicity assay on NIH/3T3 cells; format: cell-based; settings: mouse, NIH/3T3 embryonic fibroblast cells
Please respond with the number in nM and leave the unit unwritten.

// query IC50 at 48 h value for entry COc1cc([C@@H]2c3cc4c(cc3[C@@H](O[C@@H]3O[C@@H]5CO[C@@H](C)O[C@H]5[C@H](O)[C@H]3O)[C@H]3COC(=O)[C@H]23)OCO4)cc(OC)c1O [Etoposide]
820

// query IC50 at 48 h value for entry C=C1C(=O)O[C@H]2[C@H]1CC/C(C)=C/CC[C@@]1(C)O[C@@H]21 [Parthenolide]
8950

// query IC50 at 48 h value for entry C=C1C(=O)O[C@@H]2/C=C(\C)CC/C=C(/C(=O)OC)[C@H](OC(C)=O)[C@@H](OC(=O)[C@]3(C)O[C@@H]3C)[C@@H]12
2660

// query IC50 at 48 h value for entry C=C1C(=O)O[C@H]2[C@H]1[C@H](OC(=O)[C@@]1(C)O[C@H]1C)[C@@H](OC(C)=O)/C(C(=O)OC)=C\CC[C@@]1(C)O[C@H]21 [Compound 3, Enhydrin]
1530

// query IC50 at 48 h value for entry CO[C@@]12[C@H](COC(N)=O)C3=C(C(=O)C(C)=C(N)C3=O)N1C[C@@H]1N[C@@H]12
1260

// query IC50 at 48 h value for entry CC(=O)O[C@H]1C(=O)[C@@]2(C)[C@H]([C@H](OC(=O)c3ccccc3)[C@]3(O)C[C@H](OC(=O)[C@H](O)[C@@H](NC(=O)c4ccccc4)c4ccccc4)C(C)=C1C3(C)C)[C@]1(OC(C)=O)CO[C@@H]1C[C@@H]2O
120

###

assay: WST-8 cytotoxicity assay on NIH/3T3 cells; type: cell-based; conditions: mouse, NIH/3T3 embryonic fibroblast cells
measurementLabel: IC50 at 24 h (µM)
Please respond with the number in µM and leave the unit unwritten.

// query IC50 at 24 h value for entry C=C1C(=O)O[C@H]2[C@H]1[C@H](OC(=O)[C@@]1(C)O[C@H]1C)[C@@H](OC(C)=O)/C(C(=O)OC)=C\CC[C@@]1(C)O[C@H]21 [Compound 3, Enhydrin]
2.7

// query IC50 at 24 h value for entry C=C1C(=O)O[C@H]2[C@H]1CC/C(C)=C/CC[C@@]1(C)O[C@@H]21 [Parthenolide]
12.3

// query IC50 at 24 h value for entry CC(=O)O[C@H]1C(=O)[C@@]2(C)[C@H]([C@H](OC(=O)c3ccccc3)[C@]3(O)C[C@H](OC(=O)[C@H](O)[C@@H](NC(=O)c4ccccc4)c4ccccc4)C(C)=C1C3(C)C)[C@]1(OC(C)=O)CO[C@@H]1C[C@@H]2O
0.39

###

I'd be grateful if you could share measured IC50 at 24 h for these entries.
assay: WST-8 cytotoxicity assay on NIH/3T3 cells; assay type: cell-based; details: mouse, NIH/3T3 embryonic fibroblast cells
Please respond with the number in µM and leave the unit unwritten.

// query IC50 at 24 h value for entry C=C1C(=O)O[C@@H]2/C=C(\C)CC/C=C(/C(=O)OC)[C@H](OC(C)=O)[C@@H](OC(=O)[C@]3(C)O[C@@H]3C)[C@@H]12
5.29

// query IC50 at 24 h value for entry CO[C@@]12[C@H](COC(N)=O)C3=C(C(=O)C(C)=C(N)C3=O)N1C[C@@H]1N[C@@H]12
4.43

// query IC50 at 24 h value for entry COc1cc([C@@H]2c3cc4c(cc3[C@@H](O[C@@H]3O[C@@H]5CO[C@@H](C)O[C@H]5[C@H](O)[C@H]3O)[C@H]3COC(=O)[C@H]23)OCO4)cc(OC)c1O [Etoposide]
7.43
